- target-entity: Glucagon-like peptide 1 receptor (Homo sapiens) (UniProt P43220)
- Sequence (P43220 whole entry, looked up): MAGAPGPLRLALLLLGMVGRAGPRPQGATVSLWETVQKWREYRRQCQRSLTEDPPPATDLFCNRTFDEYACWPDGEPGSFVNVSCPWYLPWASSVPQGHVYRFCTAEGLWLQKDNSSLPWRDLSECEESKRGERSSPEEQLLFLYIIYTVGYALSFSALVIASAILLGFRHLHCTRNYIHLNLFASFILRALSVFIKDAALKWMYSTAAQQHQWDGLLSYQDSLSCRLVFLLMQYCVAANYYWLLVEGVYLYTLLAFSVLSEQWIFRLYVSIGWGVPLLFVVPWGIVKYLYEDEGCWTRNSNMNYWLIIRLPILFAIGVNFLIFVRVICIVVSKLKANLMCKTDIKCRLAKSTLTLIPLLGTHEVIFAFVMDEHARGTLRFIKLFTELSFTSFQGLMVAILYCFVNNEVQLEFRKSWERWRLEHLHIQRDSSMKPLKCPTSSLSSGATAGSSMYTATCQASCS
- experiment-description: qHTS of GLP-1 Receptor Inverse Agonists (Inhibition Mode); note: nearly all actives have a fitted effect of over 55% in size
- experimental-conditions: HEK293 GLP-1R CRE-luciferase, luminescence, 24 h, GLP-1R form is constitutively active; series mostly up to 38.3 µM
Out of some 410,000 compounds screened, about 6,400 (1.6%) were called active. About 20% were inconclusive and are not listed. Calls come from the whole dose curve; as a rule, active = well fitted inhibition curve with a large enough effect; inconclusive = small, poorly fitted or top-dose-only effect; inactive = no such curve, though single readings can be large or run the other way. This is one part of a sample in which actives are shown more often than they occur.
Labels: active, inactive

compound | target-entity | class-name
O=C(CCN1CCCCC1)Nc1ccc(F)c(F)c1 | Glucagon-like peptide 1 receptor (Homo sapiens) (UniProt P43220) | inactive
CC1Cc2ccccc2N1S(=O)(=O)c1cccc(C(=O)OCC(=O)N2CCOCC2)c1 (configuration not stated) | Glucagon-like peptide 1 receptor (Homo sapiens) (UniProt P43220) | inactive
CCOC(=O)N1CCN(C(c2ccnc3ccccc23)c2nnnn2-c2c(C)cccc2C)CC1 (configuration not stated) | Glucagon-like peptide 1 receptor (Homo sapiens) (UniProt P43220) | inactive
CNc1cc(-c2c(OC)cccc2OC)ncn1 | Glucagon-like peptide 1 receptor (Homo sapiens) (UniProt P43220) | inactive
CCNC(=O)C1(C)CCCN(Cc2noc(-c3ccccc3OC)n2)C1 (configuration not stated) | Glucagon-like peptide 1 receptor (Homo sapiens) (UniProt P43220) | inactive
COc1ccc(C(=O)C(OP(=O)(OC)OC)c2ccccc2OC)cc1 (configuration not stated) | Glucagon-like peptide 1 receptor (Homo sapiens) (UniProt P43220) | inactive
Cc1ccc(C(C)C)cc1OCCN1CCCC1 | Glucagon-like peptide 1 receptor (Homo sapiens) (UniProt P43220) | inactive
Cc1ccccc1NC(=O)CNc1ccccc1N1CCCCC1 | Glucagon-like peptide 1 receptor (Homo sapiens) (UniProt P43220) | active
N#CCSc1nc2ccc(N3CCOCC3)cc2c(=O)n1CCc1ccccc1 | Glucagon-like peptide 1 receptor (Homo sapiens) (UniProt P43220) | inactive
Cc1ccc(S(=O)(=O)N(C)C)cc1NC(=O)COC(=O)c1c(C)noc1C | Glucagon-like peptide 1 receptor (Homo sapiens) (UniProt P43220) | inactive
Cn1c(=O)c2c(nc(SCC(=O)Nc3ccccc3N3CCCCC3)n2C)n(C)c1=O | Glucagon-like peptide 1 receptor (Homo sapiens) (UniProt P43220) | inactive
OCCc1ccc(NCCc2ccco2)cc1 | Glucagon-like peptide 1 receptor (Homo sapiens) (UniProt P43220) | inactive
CC(=O)c1ccc(NC(=O)CCc2nc(-c3ccc(C)cc3)no2)cc1 | Glucagon-like peptide 1 receptor (Homo sapiens) (UniProt P43220) | inactive
Cc1cc(S(=O)(=O)Nc2ccc(C(=O)NCC(c3ccco3)N3CCCC3)cc2)ccc1F (configuration not stated) | Glucagon-like peptide 1 receptor (Homo sapiens) (UniProt P43220) | inactive
Cc1ccc(C(C)C)cc1OCC(=O)Nc1ccccc1N1CCCC1 | Glucagon-like peptide 1 receptor (Homo sapiens) (UniProt P43220) | active
O=S1(=O)CCN(C2CCCCCCCCCCC2)CC1 | Glucagon-like peptide 1 receptor (Homo sapiens) (UniProt P43220) | inactive
Cc1ccc(-c2noc(CCC(=O)Nc3ccccc3N3CCN(C)CC3)n2)cc1 | Glucagon-like peptide 1 receptor (Homo sapiens) (UniProt P43220) | active
O=C(Nc1ccc(Cl)cc1)c1csc([C@@H]2O[C@H](CO)[C@H](O)[C@H](O)[C@H]2O)n1 | Glucagon-like peptide 1 receptor (Homo sapiens) (UniProt P43220) | inactive
CCC1(CC)Cc2ccccc2-c2nc(CCl)[nH]c(=O)c21 | Glucagon-like peptide 1 receptor (Homo sapiens) (UniProt P43220) | inactive
CSc1ncccc1C(=O)NCC(c1ccco1)N1CCCCC1 (configuration not stated) | Glucagon-like peptide 1 receptor (Homo sapiens) (UniProt P43220) | inactive
Cc1ccc(S(=O)(=O)N2C[C@H]3C(=O)C[C@@H](c4cccc5ccccc45)N(S(=O)(=O)c4ccc(C)cc4)[C@H]3C[C@H]2c2ccc(Cl)cc2)cc1 | Glucagon-like peptide 1 receptor (Homo sapiens) (UniProt P43220) | inactive
CC1CCc2sc(C(=O)NCC(c3ccco3)N3CCCCC3)cc2C1 (configuration not stated) | Glucagon-like peptide 1 receptor (Homo sapiens) (UniProt P43220) | active
